Assay: qHTS of pediatric cancer cell lines to identify multiple opportunities for drug repurposing: Confirmatory screen for MG 63 (6-TG R) cells (AID 1347119); note: nearly all actives have a fitted effect of over 55% in size
Conditions: MG-63 (6-TG resistant) osteosarcoma viability; series mostly up to 45.9 µM
Records with an inconclusive call do not appear. Active and inactive are the calls of the source. Calls come from the whole dose curve; as a rule, active = well fitted cell-killing curve with a large enough effect; inconclusive = small, poorly fitted or top-dose-only effect, or effect the other way; inactive = no such curve, though single readings can be large or run the other way.
Could you please pick one outcome from this set? active, inactive

Consider the worked cases shown below.
// return assay outcome for CN1N=C(N)c2cn([C@@H]3O[C@H](COP(=O)(O)O)[C@@H](O)[C@@H]3O)c3ncnc1c23
active

// return assay outcome for CO[C@H]1/C=C\O[C@@]2(C)Oc3c(C)c(O)c4c(O)c(c(C=NN5CCN(C6CCCC6)CC5)c(O)c4c3C2=O)NC(=O)C(C)=CC=C[C@H](C)[C@H](O)[C@@H](C)[C@@H](O)[C@@H](C)[C@H](OC(C)=O)[C@H]1C
inactive

// return assay outcome for CN1CCN(c2ncc(-c3cc(Cl)cc(Cl)c3Cl)c(N)n2)CC1
inactive

***
// return assay outcome for CCC(=O)OCC(=O)[C@@]1(OC(=O)CC)[C@@H](C)C[C@@H]2[C@H]3CCC4=CC(=O)C=C[C@]4(C)[C@@]3(F)[C@@H](O)C[C@@]21C
inactive

* * *

Experiment: Quantitative High-Throughput drug screen in 47 multiple myeloma cell lines against the NCATS MIPE library collection: FR4_PLB cell viability assay (AID 1918924; note: nearly all actives have a fitted effect of over 35% in size; note: potency is the fitted concentration of half-maximal effect)
Conditions: FR4_PLB myeloma cells viability, CellTiter-Glo ATP, 48 h; series mostly up to 45.8 µM
Records with an inconclusive call do not appear. The source made the active and inactive calls. The call rests on the fitted dose curve; in most records, active means well fitted cell-killing curve with a large enough effect; inconclusive means small, poorly fitted or top-dose-only effect, or effect the other way; inactive means no such curve, though single readings can be large or run the other way.
metric: Potency

Answered examples (4):
For the compound O=C(Nc1ccccc1)Nc1ccc(-c2ccc(C(=O)[C@H]3CCC[C@H]3C(=O)O)cc2)cc1 , give its reported Potency.
inactive

For the compound CN1CCc2c(n(Cc3ccc(C(=O)NO)cc3)c3ccccc23)C1 , give its reported Potency.
16.6 µM (active)

For the compound CC1(C)OC2CC3C4CC(F)C5=CC(=O)C=CC5(C)C4C(O)CC3(C)[C@]2(C(=O)CO)O1 (stereo not given in full) , give its reported Potency.
inactive

For the compound N#Cc1c(N(CC(=O)O)CC(=O)O)sc(C(=O)O)c1CC(=O)O , give its reported Potency.
inactive

Consider the record given below.
For the compound Cc1csc(-c2nnc(Nc3ccc(Oc4ncccc4-c4ccnc(N)n4)cc3)c3ccccc23)c1 , give its reported Potency.
16.6 µM (active)

* * *

Test: Quantitative High-Throughput drug screen in 47 multiple myeloma cell lines against the NCATS MIPE library collection: XG6_PLB cell viability assay (AID 1919865); note: nearly all actives have a fitted effect of over 40% in size
Settings: XG6 myeloma viability, CellTiter-Glo ATP luminescence, 48 h; series mostly up to 45.8 µM
Results filed as inconclusive are left out. Activity calls are given as the source filed them. Calls come from the whole dose curve; as a rule, active = well fitted cell-killing curve with a large enough effect; inconclusive = small, poorly fitted or top-dose-only effect, or effect the other way; inactive = no such curve, though single readings can be large or run the other way.
Could you please pick one outcome from this set? Y = active, N = inactive

// return assay outcome for Cc1cccc(Nc2nc(N[C@@H]3CCCC[C@H]3N)ncc2C(N)=O)c1
Y

// return assay outcome for Cc1ccccc1C(=O)c1ccc(Nc2ccc(Br)cc2N)cc1Cl
Y

// return assay outcome for CC1=C(C(=O)Nc2cc3cn[nH]c3cc2F)C(c2ccc(C(F)(F)F)cc2)CC(=O)N1 (stereo not given)
N

// return assay outcome for Cc1ccc(NC(=O)c2ccc(CN3CCN(C)CC3)cc2)cc1Nc1nc(-c2cccnc2)cs1
Y

// return assay outcome for O=C(O)CCNc1cc(N2CCc3ccccc3CC2)nc(-c2ccccn2)n1
N

***
// return assay outcome for OC[C@H]1O[C@@H](O[C@H]2[C@@H](O)[C@@](O)(CO)O[C@@H]2CO)[C@H](O)[C@@H](O)[C@@H]1O
N

// return assay outcome for CNC(=O)[C@H](Cc1ccccc1)NC(=O)[C@H](CC(C)C)[C@H](CSc1cccs1)C(=O)NO
Y

// return assay outcome for COc1cc2c(cc1OC)[C@@H]1Cc3ccc(OC)c(OC)c3CN1CC2
N

// return assay outcome for O=C(O)CCC=CCC[C@@H]1[C@H](N2CCCCC2)[C@@H](O)C[C@@H]1OCc1ccc(-c2ccccc2)cc1
N

// return assay outcome for COc1cc(C=CC(=O)O)ccc1O
N

* * *

Assay: High-throughput drug toxicity screening in the BPDCN cell line Gen2.2 (AID 1224824);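 note: cells exposed to compounds for 48 h before reading; 100% = DMSO and 0% = bortezomib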
Details: Gen2.2 BPDCN cells; at 45.8 µM (top of the series) unless noted
Text: Blastic plasmacytoid dendritic cell neoplasm (BPDCN) is a rare, aggressive and largely incurable hematologic malignancy originating from plasmacytoid dendritic cells (pDCs). Although an initial response to chemotherapy is common, BPDCN prognosis is extremely poor and most patients relapse with drug-resistant disease leading to a median overall survival of ~1 year after diagnosis. […]
metric: cell viability, % of control (lower = more cytotoxic) (%)
Respond with the bare value in %.

Answered examples (5):
For the compound O=[N+]([O-])c1ccc(Nc2ccccc2-c2ccccc2)c2nonc12 , give its reported cell viability, % of control (lower = more cytotoxic).
145

For the compound CC(C)C[C@H](NC(=O)c1cc2ccccc2s1)C(=O)N1CCN(C(=O)[C@H](CO)NS(=O)(=O)c2ccc(Cl)cc2Cl)CC1 , give its reported cell viability, % of control (lower = more cytotoxic).
29.4

For the compound CCN(CCO)CCCOc1ccc2c(Nc3cc(CC(=O)Nc4cccc(F)c4)[nH]n3)ncnc2c1 , give its reported cell viability, % of control (lower = more cytotoxic).
90.4

For the compound CCOC(=O)[C@@H](N)CCC(=O)N[C@@H](CSCc1ccccc1)C(=O)N[C@@H](C(=O)OCC)c1ccccc1 , give its reported cell viability, % of control (lower = more cytotoxic).
39.6

For the compound NS(=O)(=O)c1cc(Cl)c(Cl)c(S(N)(=O)=O)c1 , give its reported cell viability, % of control (lower = more cytotoxic).
166

***
For the compound CCn1c(-c2nonc2N)nc2cncc(CNC3CCNCC3)c21 , give its reported cell viability, % of control (lower = more cytotoxic).
7.5

For the compound COc1ccc(C=CC(=O)Nc2ccccc2C(=O)O)cc1OC , give its reported cell viability, % of control (lower = more cytotoxic).
188

For the compound C[C@]12CCC3=C4CCC(=O)C=C4CC[C@@H]3[C@H]1CC[C@@]2(O)CC#N , give its reported cell viability, % of control (lower = more cytotoxic).
106

For the compound CCCCC(C)(C)[C@H](O)C=C[C@H]1[C@H](O)CC(=O)[C@H]1CC=CCCCC(=O)O , give its reported cell viability, % of control (lower = more cytotoxic).
29.2

* * *

Target: Cytochrome P450 2C9 (Homo sapiens)
Assay: Cytochrome P450 family 2 subfamily C member 9 (CYP2C9) small molecule antagonists: luciferase biochemical (cell-free) qHTS assay (AID 1645842); note: nearly all actives have a fitted effect of over 55% in size
Details: P450-Glo CYP2C9 enzyme assay, luciferin luminescence; series mostly up to 57.4 µM
Records with an inconclusive call do not appear. Calls of active or inactive are those of the source. The call rests on the fitted dose curve; in most records, active means well fitted inhibition curve with a large enough effect in the repeat runs; inconclusive means weak or mixed curves; inactive means no such curve, though single readings can be large or run the other way.
Could you please pick one outcome from this set? 1 = active, 0 = inactive

Consider the worked cases shown below.
// return assay outcome for CNC1CCC(N(Cc2cccc(-c3ccncc3)c2)C(=O)c2sc3ccccc3c2Cl)CC1 (stereo not drawn)
1

// return assay outcome for OC[C@H]1O[C@@H](OCCc2ccc(O)cc2)[C@H](O)[C@@H](O)[C@H]1O
0

// return assay outcome for Cc1csc(-c2nnc(Nc3ccc(Oc4ncccc4-c4ccnc(N)n4)cc3)c3ccccc23)c1
1

// return assay outcome for c1cc(OCCN2CCCCC2)cc(-c2n[nH]c3ccc(-c4ncn[nH]4)cc23)c1
0

Now for a further molecule.
// return assay outcome for Cn1c(=O)c(-c2c(Cl)cccc2Cl)cc2cnc(Nc3cccc(C(=O)O)c3)nc21
0

* * *

Test: qHTS of pediatric cancer cell lines to identify multiple opportunities for drug repurposing: Confirmatory screen for Rh18 cells (AID 1347125);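 note: cells exposed to compound for 48 h; nearly all actives have a fitted effect of over 55% in size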
Details: Rh18 rhabdomyosarcoma cells, viability; series mostly up to 45.9 µM
Results filed as inconclusive are left out. The source made the active and inactive calls. Calls come from the whole dose curve; as a rule, active = well fitted cell-killing curve with a large enough effect; inconclusive = small, poorly fitted or top-dose-only effect, or effect the other way; inactive = flat fitted curve, though single readings scatter.
Could you please pick one outcome from this set? True for active, False for inactive

Consider the worked cases shown below.
// return assay outcome for Cc1cccc(-c2[nH]c(C(C)(C)C)nc2-c2ccc3c(c2)OCO3)n1
False

// return assay outcome for CCC(=O)OCC(=O)[C@@]1(OC(=O)CC)[C@@H](C)C[C@@H]2[C@H]3CCC4=CC(=O)C=C[C@]4(C)[C@@]3(F)[C@@H](O)C[C@@]21C
False

// return assay outcome for CN(C)CCN(C)C(=O)c1ccc(NC(=O)Nc2ccc(-c3nc(N4CCOCC4)c4ccn(CC(F)(F)F)c4n3)cc2)cc1
True

// return assay outcome for CCN(CCO)CCCOc1ccc2c(Nc3cc(CC(=O)Nc4cccc(F)c4)[nH]n3)ncnc2c1
False

// return assay outcome for Nc1ccc(-c2ccc3ncc4ccc(=O)n(-c5cccc(C(F)(F)F)c5)c4c3c2)cn1
True

// return assay outcome for CO[C@H]1/C=C\O[C@@]2(C)Oc3c(C)c(O)c4c(O)c(c5c(nc6cc(C)ccn65)c4c3C2=O)NC(=O)C(C)=CC=C[C@H](C)[C@H](O)[C@@H](C)[C@@H](O)[C@@H](C)[C@H](OC(C)=O)[C@H]1C
False

// return assay outcome for C=CC(=O)Nc1cccc(Sc2nc(Nc3ccc(N4CCN(C)CC4)cc3)ncc2Cl)c1
True

// return assay outcome for CC(C)CN(C[C@H](O)[C@H](Cc1ccccc1)NC(=O)O[C@H]1CCOC1)S(=O)(=O)c1ccc(N)cc1
False

// return assay outcome for CCOC(=O)[C@H](CCc1ccccc1)N[C@@H](C)C(=O)N1CCCC1C(=O)O (stereo partly specified)
True

// return assay outcome for COc1cc(CNC(=O)CCCCC=CC(C)C)ccc1O
False

***
// return assay outcome for C[C@@]1(C(=O)Nc2ccc(F)nc2)CCCN1c1nc(Nc2cc(C3CC3)[nH]n2)c2cccn2n1
True

// return assay outcome for CC[C@]1(O)C[C@H]2CN(CCC3=c4ccccc4=N[C]3[C@@](C(=O)OC)(c3cc4c(cc3OC)N(C)[C@H]3[C@@](O)(C(N)=O)[C@H](O)[C@]5(CC)C=CCN6CC[C@]43[C@@H]65)C2)C1
False

// return assay outcome for Nc1[nH]nc2nnc(-c3c(-c4ccccc4)nn4ccccc34)cc12
True

// return assay outcome for COc1cc2c(cc1Cc1cccc(Cl)c1F)c(=O)c(C(=O)O)cn2[C@H](CO)C(C)C
False

// return assay outcome for CC1=C(CC(=O)O)c2cc(F)ccc2C1=Cc1ccc(S(C)=O)cc1 (stereo unspecified)
False

// return assay outcome for CC1(C)OC2CC3C4CC(F)C5=CC(=O)C=CC5(C)C4C(O)CC3(C)[C@]2(C(=O)CO)O1 (stereo partly specified)
False
